Assignment: determine reported cytotoxicity at 10 µM for the given compounds.
Assay: Toxicity liver stage against HepG2, at 10uM
Format: cell-based
Parameters: test concentration 10 uM, cell line HepG2-A16-CD81EGFP
Settings: human, HepG2-A16-CD81EGFP cells; read-out: INHIBITION
Numbers only, in %.

Observe how each entry below is paired with its result.
[
  {
    "compound": "COc1ncnc2c1CCN(Cc1cccc(C)n1)CC2",
    "cytotoxicity at 10 µM [%]": -146
  },
  {
    "compound": "Cc1ccc(=O)n(CC(=O)N(C)Cc2csc(-c3cccs3)n2)n1",
    "cytotoxicity at 10 µM [%]": 6.23
  },
  {
    "compound": "O=S(=O)(NC1CCC12CCN(CC1CCOCC1)CC2)c1ccccc1 (centres undefined)",
    "cytotoxicity at 10 µM [%]": -1.34
  },
  {
    "compound": "O=C(NCc1ccco1)[C@H]1C[C@H]2OCC[C@H]2N(S(=O)(=O)C2CC2)C1",
    "cytotoxicity at 10 µM [%]": -1.48
  },
  {
    "compound": "Cc1ccc(NC(=O)Cn2ccc3c(=O)n(C)ccc32)cc1F",
    "cytotoxicity at 10 µM [%]": -2.74
  }
]

Record cytotoxicity at 10 µM per entry; entries follow.
1. CC(C)(C)OC(=O)N1CCCN(c2nnc(C3CC3)s2)CC1
2. Cc1cc(=O)n(CC(=O)NC2CCCCC2)c2ccccc12
3. NC(=O)C1CCN(c2nc3nccc(-c4ccncc4)c3c(=O)[nH]2)CC1
4. CNC(=O)c1cn2cc(-c3cccc(Cl)c3)n(CC3CC3)c(=O)c2n1
5. COc1cccc(N2CCN(C(=O)C(C)Oc3ccccc3)CC2=O)c1 (centres undefined)
6. COCc1ncc(CN2CC[C@@H](NC(=O)c3cccnc3)[C@H](O)C2)cn1
7. Cc1ccc(CN2CCCC3(CCCC(=O)N3)C2)s1 (centres undefined)
8. COc1ccc(Cl)cc1NCC(=O)NCCc1ccccn1

A.
[8.05, 0.126, 6.09, -37.4, -4.73, -7.28, -0.361, -8.26]

response.value for CCS(=O)(=O)N1C[C@@H](O)[C@H](N2CCc3ccccc3C2)C1 (field: cytotoxicity at 10 µM) = -3.63

Origin of values: ChEMBL document CHEMBL4513216
